Assay: 1-Octanol-citrate buffer partition coefficient, log P of the compound at pH 4.0 by UV spectrometry
Format: physicochemical
assay.readout: logD

Answered examples (3):
| compound | quantitative.readout |
| --- | --- |
| COCC(O)COc1ccc2oc3ccc(C(=O)O)cc3c(=O)c2c1 (centres undefined) | 2.13 |
| CCCCCCCSCC(O)COc1ccc2oc3ccc(C(=O)O)cc3c(=O)c2c1 (centres undefined) | 2.81 |
| O=C(O)c1ccc2oc3ccc(OCC(O)COCCO)cc3c(=O)c2c1 (centres undefined) | 2.31 |

A = O=C(O)c1ccc2oc3ccc(OCC(O)CSc4ccccc4)cc3c(=O)c2c1 (centres undefined)
B = O=C(O)c1ccc2oc3ccc(OCC(O)CO)cc3c(=O)c2c1 (centres undefined)
C = C[S+]([O-])CC(O)COc1ccc2oc3ccc(C(=O)O)cc3c(=O)c2c1 (centres undefined)
Request: Arrange the 3 compounds by rising logD, starting with the smallest. Enter labels, ranked according to the request.
Response: C, B, A
(C: 1.36, B: 2.33, A: 3.8)

###

System: Rattus norvegicus
Experiment: Antiallergic activity in anti-Nippostrongylus brasiliensis homocytotropic antibody-injected Sprague-Dawley rat assessed as inhibition of passive cutaneous anaphylaxis reaction at 10 mg/kg, ip administered 15 mins prior to worm extract antigen challenge measured 45 mins following antigen challenge by Evans blue dye staining
Type: functional
Settings: route intraperitoneal
Known log(%) of a selection of compounds
Reply with the value as a number alone.

Observe how each entry below is paired with its result.
| compound | log(%) |
| --- | --- |
| CCCCCCCSCC(O)COc1ccc2oc3ccc(C(=O)O)cc3c(=O)c2c1 (stereo unspecified) | 1.23 |
| O=C(O)c1ccc2oc3ccc(OCC(O)COCC(F)(F)F)cc3c(=O)c2c1 (stereo unspecified) | 2 |
| COCCOCC(O)COc1ccc2oc3ccc(C(=O)O)cc3c(=O)c2c1 (stereo unspecified) | 2 |
| O=C(O)c1ccc2oc3ccc(OCC(O)CSCCO)cc3c(=O)c2c1 (stereo unspecified) | 2 |
| CSCC(O)COc1ccc2oc3ccc(C(=O)O)cc3c(=O)c2c1 (stereo unspecified) | 1.85 |

Briefly, log(%) measured for COCC(O)COc1ccc2oc3ccc(C(=O)O)cc3c(=O)c2c1 (stereo unspecified) : 1.46

Quick note, log(%) for CC(C)(C)SCC(O)COc1ccc2oc3ccc(C(=O)O)cc3c(=O)c2c1 (stereo unspecified) landed at 1.92

Recorded result, O=C(O)c1ccc2oc3ccc(OCC(O)CSC4CCCCC4)cc3c(=O)c2c1 (stereo unspecified) , log(%): 1.59

log(%) in this record for O=C(O)c1ccc2oc3ccc(OCC(O)CSc4ccccc4)cc3c(=O)c2c1 (stereo unspecified) : 2

// log(%) lookup, compound = O=C(O)c1ccc2oc3ccc(OCC(O)COCCO)cc3c(=O)c2c1 (stereo unspecified) , result: 1.89

Record summary for CC(C)SCC(O)COc1ccc2oc3ccc(C(=O)O)cc3c(=O)c2c1 (stereo unspecified) : reported log(%) = 1.54

###

Tested on: Rattus norvegicus
Assay: Antiallergic activity in anti-Nippostrongylus brasiliensis homocytotropic antibody-injected Sprague-Dawley rat assessed as inhibition of passive cutaneous anaphylaxis reaction at 10 mg/kg, ip administered 15 mins prior to worm extract antigen challenge measured 45 mins following antigen challenge by Evans blue dye staining
Type: functional
Settings: route intraperitoneal
We begin with a simple list: items and their reported log(%).
# print the numeric value only

Example results:
| compound | quantitative.readout |
| --- | --- |
| O=C(O)c1ccc2oc3ccc(OCC(O)CSC45CC6CC(CC(C6)C4)C5)cc3c(=O)c2c1 (stereo not drawn) | 1.2 |
| O=C(O)c1ccc2oc3ccc(OCC(O)CO)cc3c(=O)c2c1 (stereo not drawn) | 1.89 |

Moving on to another compound below.
Summary for this compound, C[S+]([O-])CC(O)COc1ccc2oc3ccc(C(=O)O)cc3c(=O)c2c1 (stereo not drawn) : log(%) is 2
